target: human C-P4H1 (Homo sapiens); construct: made in house; host or cells: HEK-293FT; assay: Human C-P4H1 activity measured with Succinate-Glo Hydroxylase assay (also high-throughput screening); format: biochemical; conditions: 0.1 μM WT C-P4HA1 (FIG. 3E); read-out: IC50 of wild type C-P4H1 inhibition
Sequence (P13674 18-534): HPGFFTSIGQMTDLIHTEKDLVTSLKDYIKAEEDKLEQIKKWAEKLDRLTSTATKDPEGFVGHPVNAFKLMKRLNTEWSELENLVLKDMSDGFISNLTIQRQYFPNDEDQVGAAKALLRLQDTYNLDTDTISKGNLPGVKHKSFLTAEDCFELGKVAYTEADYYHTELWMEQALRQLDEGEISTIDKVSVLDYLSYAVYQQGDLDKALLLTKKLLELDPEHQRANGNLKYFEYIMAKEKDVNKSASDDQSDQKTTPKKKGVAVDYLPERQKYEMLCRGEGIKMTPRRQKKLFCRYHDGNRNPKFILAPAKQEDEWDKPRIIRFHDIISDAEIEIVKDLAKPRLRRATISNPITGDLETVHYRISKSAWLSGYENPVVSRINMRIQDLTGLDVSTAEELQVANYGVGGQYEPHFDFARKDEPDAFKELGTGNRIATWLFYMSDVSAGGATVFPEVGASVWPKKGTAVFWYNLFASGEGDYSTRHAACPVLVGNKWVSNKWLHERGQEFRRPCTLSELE
Sequence (P07237 18-508 partner): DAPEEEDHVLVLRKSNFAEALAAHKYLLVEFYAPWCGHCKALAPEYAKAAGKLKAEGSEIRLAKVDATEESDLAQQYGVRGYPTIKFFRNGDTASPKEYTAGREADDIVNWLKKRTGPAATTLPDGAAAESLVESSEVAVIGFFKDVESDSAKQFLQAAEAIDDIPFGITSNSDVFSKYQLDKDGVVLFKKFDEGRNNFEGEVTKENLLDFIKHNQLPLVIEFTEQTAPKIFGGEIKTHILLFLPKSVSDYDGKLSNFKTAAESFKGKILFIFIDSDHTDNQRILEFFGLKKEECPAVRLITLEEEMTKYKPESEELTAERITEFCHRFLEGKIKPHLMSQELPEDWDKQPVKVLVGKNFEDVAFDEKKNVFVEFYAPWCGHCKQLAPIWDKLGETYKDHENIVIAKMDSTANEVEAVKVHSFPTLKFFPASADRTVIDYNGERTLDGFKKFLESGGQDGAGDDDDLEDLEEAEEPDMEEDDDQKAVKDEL
pIC50: −log10 of the molar value.
property_measured: pIC50

Request: Please look at this compound and report its pIC50: CCOC(=O)c1ccc(O)c(O)c1 [DHB, ethyl-3,4-dihydroxybenzoic acid]
Response: ~4.40
